Item-by-item account of koff
System: T1, soluble human BLyS (human, UniProt Q9Y275 134-285)
T1 construct: also called hBLyS; human BAFF (BLyS)
Experimental details: Biacore T100, binder captured by anti-human Fc, BLyS injected, 1:1 model

| Binder | koff |
| --- | --- |
| 5B7 IgG1 F243A/V264A double mutein expressed in Pichia pastoris (antibody, V domains shown, IgG1 F243A/V264A (EU) double mutein, alpha-2,6-sialylated, from glycoengineered Pichia pastoris; also called 5B7-DM; 5B7-DM Pichia) VH: QVQLVQSGAEVKKPGASVKVSCKASGGTFSSYAISWVRQAPGQGLEWMGGIIPIFGTANYAQKFQGRVTITADKSTSTAYMELSSLRSEDTAVYYCARVDYDILTGYYMGYFDYWGQGTLVTVSS VL: DIVMTQSPATLSLSPGERATLSCRASQSVSSYLAWYQQKPGQAPRLLIYDASNRATGIPARFSGSGSGTDFTLTISSLEPEDFAVYYCQQRSNWPITFGQGTRLEIKR | 4.6e-05 s⁻¹ |
| 8D12 IgG1 F243A/V264A double mutein expressed in Pichia pastoris (antibody, V domains shown, IgG1 F243A/V264A (EU) double mutein, alpha-2,6-sialylated, from glycoengineered Pichia pastoris; also called 8D12-DM; 8D12-DM (Pichia)) VH: QVQLVQSGAEVKKPGASVKVSCKASGYTFTSYAMHWVRQAPGQRLEWMGWINAGNGNTKYSQKFQGRVTITRDTSASTAYMELSSLRSEDTAVYYCARAYYDILTGYSVYGMDVWGQGTTVTVSS VL: EIVLTQSPATLSLSPGERATLSCRANESVGNYLAWYQQKPGQAPRLLIYGASRRATGIPDRFSGSGSGTDFTLTISRLEPEDFAVYYCQQYGSSLLTFGGGTKVEIKR | 5.4e-05 s⁻¹ |
| 6C10 IgG1 F243A/V264A double mutein expressed in Pichia pastoris (antibody, V domains shown, IgG1 F243A/V264A (EU) double mutein, alpha-2,6-sialylated, from glycoengineered Pichia pastoris; also called 6C10-DM; 6C10-DM (Pichia)) VH: EVQLVQSGAEVKKPGASVKVSCKASGYTFTSYGISWVRQAPGQGLEWMGWISAYNGNTNYAQKLQGRVTMTTDTSTSTAYMELRSLRSDDTAVYYCARTYYDILTGYYYYYGMDVWGQGTTVTVSS VL: EIVLTQSPGTLSLSPGERAMLSCRASQSVGNYLAWYQQKPGQAPRLLIYDASNRATGIPARFSGSGSGTDFTLTINSLEPEDFAVYYCQQRSNWPLTFGGGTKVEIKR | 2.5e-05 s⁻¹ |
| mouse TACI (R&D Systems receptor chimera) (receptor, UniProt Q9ET35 2-129, looked up, not shown: a dimerising Fc or GST, also called mTACI; TACI rec Mouse) AMAFCPKDQYWDSSRKSCVSCALTCSQRSQRTCTDFCKFINCRKEQGRYYDHLLGACVSCDSTCTQHPQQCAHFCEKRPRSQANLQPELGRPQAGEVEVRSDNSGRHQGSEHGPGLRLSSDQLTLYCT | 0.000239 s⁻¹ |
